Data origin, for the record: ChEMBL document CHEMBL5131499

study.target: Sucrase-isomaltase, intestinal (Rattus norvegicus)
Sequence (P23739 1-1013 limits assumed): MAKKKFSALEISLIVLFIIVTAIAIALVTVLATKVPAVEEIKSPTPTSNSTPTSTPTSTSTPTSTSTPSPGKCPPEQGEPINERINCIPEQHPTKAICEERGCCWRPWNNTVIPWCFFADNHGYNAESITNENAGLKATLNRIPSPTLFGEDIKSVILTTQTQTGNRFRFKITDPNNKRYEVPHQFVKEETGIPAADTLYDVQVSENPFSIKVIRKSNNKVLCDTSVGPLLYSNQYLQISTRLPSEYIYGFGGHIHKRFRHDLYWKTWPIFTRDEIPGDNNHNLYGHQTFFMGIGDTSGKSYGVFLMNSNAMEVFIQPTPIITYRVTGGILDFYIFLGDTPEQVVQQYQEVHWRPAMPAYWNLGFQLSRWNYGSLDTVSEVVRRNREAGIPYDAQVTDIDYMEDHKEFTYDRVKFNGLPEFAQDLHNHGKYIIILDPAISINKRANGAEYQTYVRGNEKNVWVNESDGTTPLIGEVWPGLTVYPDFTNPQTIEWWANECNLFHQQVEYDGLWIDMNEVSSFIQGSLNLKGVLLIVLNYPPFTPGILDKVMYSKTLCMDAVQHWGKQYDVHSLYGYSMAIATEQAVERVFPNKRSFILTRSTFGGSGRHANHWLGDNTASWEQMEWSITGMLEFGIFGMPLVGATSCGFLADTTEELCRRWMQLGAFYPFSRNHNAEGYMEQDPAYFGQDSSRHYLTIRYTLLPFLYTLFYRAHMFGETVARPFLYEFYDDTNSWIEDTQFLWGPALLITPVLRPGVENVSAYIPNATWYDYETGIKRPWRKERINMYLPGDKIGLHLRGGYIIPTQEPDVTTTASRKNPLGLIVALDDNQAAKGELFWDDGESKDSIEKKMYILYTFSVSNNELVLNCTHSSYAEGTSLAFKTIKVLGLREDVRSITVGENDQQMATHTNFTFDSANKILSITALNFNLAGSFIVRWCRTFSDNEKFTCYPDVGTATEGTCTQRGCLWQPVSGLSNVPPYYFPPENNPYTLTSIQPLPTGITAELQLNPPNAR
Sequence (P23739 1014-1841 limits assumed): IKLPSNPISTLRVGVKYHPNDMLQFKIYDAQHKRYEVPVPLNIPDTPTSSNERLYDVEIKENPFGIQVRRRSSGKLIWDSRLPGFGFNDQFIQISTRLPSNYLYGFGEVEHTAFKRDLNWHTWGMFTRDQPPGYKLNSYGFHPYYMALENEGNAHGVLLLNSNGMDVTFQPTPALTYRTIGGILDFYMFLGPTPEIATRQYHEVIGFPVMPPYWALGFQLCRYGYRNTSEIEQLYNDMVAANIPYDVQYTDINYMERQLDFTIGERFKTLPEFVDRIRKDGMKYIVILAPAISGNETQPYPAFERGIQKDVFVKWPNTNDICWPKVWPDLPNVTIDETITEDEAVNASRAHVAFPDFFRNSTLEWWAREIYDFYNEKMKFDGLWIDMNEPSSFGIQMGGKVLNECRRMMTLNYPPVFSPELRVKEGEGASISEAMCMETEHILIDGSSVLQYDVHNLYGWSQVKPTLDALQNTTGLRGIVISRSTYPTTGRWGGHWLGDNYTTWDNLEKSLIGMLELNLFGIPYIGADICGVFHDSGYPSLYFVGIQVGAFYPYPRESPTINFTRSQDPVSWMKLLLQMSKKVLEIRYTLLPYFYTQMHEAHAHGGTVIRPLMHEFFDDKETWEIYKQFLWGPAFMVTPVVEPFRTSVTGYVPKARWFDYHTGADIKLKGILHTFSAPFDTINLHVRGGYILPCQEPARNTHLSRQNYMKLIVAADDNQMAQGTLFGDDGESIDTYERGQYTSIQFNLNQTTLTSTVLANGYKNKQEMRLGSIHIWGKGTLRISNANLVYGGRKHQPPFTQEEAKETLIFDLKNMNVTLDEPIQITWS
procedure.summary: Inhibition of rat intestinal sucrase assessed as release of p-nitrophenol using p-nitrophenyl glycoside as substrate by spectrometric assay
pIC50: −log10 of the molar value.
Entry flag: fulfilled if pIC50 reaches 6; not fulfilled if it does not.

Does the reported pIC50 for CCCCCCCCC[C@]1(CO)NC[C@@H](O)[C@@H]1O fall at or above the 6 mark?
not fulfilled

Does the reported pIC50 for Cc1ccc([C@]2(CO)NC[C@@H](O)[C@@H]2O)cc1 fall at or above the 6 mark?
not fulfilled

Does the reported pIC50 for COc1cccc([C@]2(CO)NC[C@@H](O)[C@@H]2O)c1 fall at or above the 6 mark?
not fulfilled

Does the reported pIC50 for CCCC[C@]1(CO)NC[C@@H](O)[C@@H]1O fall at or above the 6 mark?
not fulfilled

Does the reported pIC50 for COc1cccc([C@@]2(CO)NC[C@H](O)[C@H]2O)c1 fall at or above the 6 mark?
not fulfilled

Does the reported pIC50 for COc1ccc([C@@]2(CO)NC[C@H](O)[C@H]2O)cc1 fall at or above the 6 mark?
fulfilled

Does the reported pIC50 for COc1ccc([C@@]2(CO)NC[C@H](O)[C@H]2O)cc1OC fall at or above the 6 mark?
not fulfilled

Does the reported pIC50 for OC[C@@]1(c2ccc(F)cc2)NC[C@@H](O)[C@@H]1O fall at or above the 6 mark?
fulfilled

Does the reported pIC50 for C[C@@]1(CO)NC[C@H](O)[C@H]1O fall at or above the 6 mark?
fulfilled

Does the reported pIC50 for COc1ccc([C@]2(CO)NC[C@@H](O)[C@@H]2O)cc1 fall at or above the 6 mark?
not fulfilled

Does the reported pIC50 for OC[C@]1(c2ccc(F)cc2)NC[C@H](O)[C@H]1O fall at or above the 6 mark?
not fulfilled

Does the reported pIC50 for C[C@]1(CO)NC[C@@H](O)[C@@H]1O fall at or above the 6 mark?
not fulfilled

====

For each record, write down the corresponding inhibition.
Test system: Penicillium decumbens
procedure.summary: Inhibition of Penicillium decumbens alpha-L-rhamnosidase assessed as release of p-nitrophenol at 1000 uM using p-nitrophenyl glycoside as substrate by spectrometric assay relative to control
Numbers only here, please. The scale is %.

Entry COc1ccc([C@@]2(CO)NC[C@H](O)[C@H]2O)cc1OC ; inhibition = 0

Entry COc1ccc([C@]2(CO)NC[C@@H](O)[C@@H]2O)cc1OC ; inhibition = 0

Entry OC[C@]1(c2ccc(F)cc2)NC[C@H](O)[C@H]1O ; inhibition = 0

====

study.target: Alpha-mannosidase (Canavalia ensiformis)
procedure.summary: Inhibition of jack bean alpha-mannosidase assessed as release of p-nitrophenol at 1000 uM using p-nitrophenyl glycoside as substrate by spectrometric assay relative to control
readout.type: inhibition (%)
Numbers only here, please. The scale is %.

Entry COc1ccc([C@]2(CO)NC[C@@H](O)[C@@H]2O)cc1 ; inhibition = 0.2

Entry COc1cccc([C@]2(CO)NC[C@@H](O)[C@@H]2O)c1 ; inhibition = 0

Entry COc1ccc([C@]2(CO)NC[C@@H](O)[C@@H]2O)cc1OC ; inhibition = 0

Entry COc1cccc([C@@]2(CO)NC[C@H](O)[C@H]2O)c1 ; inhibition = 0

Entry Cc1ccc([C@@]2(CO)NC[C@H](O)[C@H]2O)cc1 ; inhibition = 0

Entry OC[C@@]1(c2c(F)c(F)c(F)c(F)c2F)NC[C@@H](O)[C@@H]1O ; inhibition = 0

Entry OC[C@]1(c2ccc(O)cc2)NC[C@H](O)[C@H]1O ; inhibition = 3.4

Entry OC[C@]1(c2c(F)c(F)c(F)c(F)c2F)NC[C@H](O)[C@H]1O ; inhibition = 6.6

Entry OC[C@@]1(c2ccc(F)cc2)NC[C@@H](O)[C@@H]1O ; inhibition = 6.6

Entry CCCC[C@]1(CO)NC[C@@H](O)[C@@H]1O ; inhibition = 1.9
